protocol: logP (HPLC-MS)
Assay type: physicochemical
experimentalContext: HPLC, reversed-phase column (C18), acidic range pH 2.7, acetonitrile (0.1% formic acid)/water gradient, 43° C., calibration with unbranched alkan-2-ones
propertyMeasured: log p

C#CCn1c(C(=O)NC(c2cccc(C(F)(F)F)c2)C(F)(F)F)nc2cc(C(=O)NC3CC3)c(Cl)cc21 (centres unmarked) [Compound 91] | 3.55
CCn1c(C(=O)NC(c2cccc(C(F)(F)F)c2)C(F)(F)F)cc2cc(C(=O)NC(C)CF)c(Cl)cc21 (centres unmarked) [Compound 8] | 3.88
C#CCn1c(C(=O)NC(c2cccc(Cl)c2)C(F)(F)F)cc2cc(C(=O)NC3CC3)c(Cl)cc21 (centres unmarked) [Compound 5] | 3.45
C#CCn1c(C(=O)NC(c2ccc(F)c(Br)c2)C(F)(F)F)cc2cc(C(=O)NC3CC3)c(Cl)cc21 (centres unmarked) [Compound 14] | 3.52
CCn1c(C(=O)NC(c2cc(Cl)cc(Cl)c2)C(F)(F)F)cc2cc(C(=O)NC3CC3)c(Cl)cc21 (centres unmarked) [Compound 13] | 4.27
C#CCn1c(C(=O)NC(c2ccc(F)c(Cl)c2)C(F)(F)F)nc2cc(C(=O)NC3CC3)c(Cl)cc21 (centres unmarked) [Compound 101] | 3.50
CCn1c(C(=O)NC(c2ccc(F)c(Cl)c2)C(F)(F)F)cc2cc(C(=O)NC3CC3)c(Cl)cc21 (centres unmarked) [Compound 18] | 3.82
CCn1c(C(=O)NC(c2ccc(F)c(Cl)c2)C(F)(F)F)nc2cc(C(=O)NC3CC3)c(Cl)cc21 (centres unmarked) [Compound 37] | 3.59
CCn1c(C(=O)NC(c2cc(Cl)cc(Cl)c2)C(F)(F)F)cc2cc(C(=O)NC3(C#N)CC3)c(Cl)cc21 (centres unmarked) [Compound 43] | 4.14
CCn1c(C(=O)NC(c2cccc(C(F)(F)F)c2)C(F)(F)F)cc2cc(CNC(=O)C3CC3)c(C(F)(F)F)cc21 (centres unmarked) [Compound 23] | 4.37
CCn1c(C(=O)NC(c2cccc(Cl)c2)C(F)(F)F)cc2cc(C(=O)NC3(C#N)CC3)c(Cl)cc21 (centres unmarked) [Compound 39] | 3.67
CCn1c(C(=O)NC(c2ccc(F)c(C(F)(F)F)c2)C(F)(F)F)cc2cc(C(=O)NC3(C#N)CC3)c(Cl)cc21 (centres unmarked) [Compound 16] | 3.88
C#CCn1c(C(=O)NC(c2ccc(F)c(C(F)(F)F)c2)C(F)(F)F)nc2cc(C(=O)NC3CC3)c(Cl)cc21 (centres unmarked) [Compound 97] | 3.62
CCn1c(C(=O)NC(c2cccc(Cl)c2)C(F)(F)F)cc2cc(C(=O)NC3CC3)c(C)cc21 (centres unmarked) [Compound 184] | 3.57

* * *

We begin with a simple list: items and their reported efficacy in %.
Test system: Myzus persicae
protocol: Myzus test (MYZUPE spray treatment)
Type: in vivo
experimentalContext: application rate 100 g/ha; Chinese cabbage leaf discs; after 6 days
Field format: number, assumed %, no unit text.

In the examples that follow, each entry is paired with its recorded efficacy in %.
O=C(NC1CC1)c1cc2nc(C(=O)NC(c3cccc(C(F)(F)F)c3)C(F)(F)F)n(C3CC3)c2cc1Cl (stereo not shown) [Compound 312] | 100
CCn1c(C(=O)NC(c2ccc(F)c(Cl)c2)C(F)(F)F)cc2cc(C(=O)NC3(C#N)CC3)c(C)cc21 (stereo not shown) [Compound 193] | 90
CCn1c(C(=O)NC(c2ccc(F)c(F)c2)C(F)(F)F)cc2cc(C(=O)NC3(C#N)CC3)c(Cl)cc21 (stereo not shown) [Compound 315] | 90

Recorded result, Cn1c(C(=O)NC(c2ccc(F)c(Cl)c2)C(F)(F)F)cc2cc(C(=O)NC3(C#N)CC3)c(Cl)cc21 (stereo not shown) [Compound 54] , efficacy in %: 100

Recorded result, CCn1c(C(=O)NC(c2cc(Cl)cc(Cl)c2)C(F)(F)F)cc2cc(C(=O)NC3(C#N)CC3)c(C)cc21 (stereo not shown) [Compound 291] , efficacy in %: 90

Recorded result, CCn1c(C(=O)NC(c2ccc(Cl)c(Cl)c2)C(F)(F)F)cc2cc(C(=O)NC3(C#N)CC3)c(Cl)cc21 (stereo not shown) [Compound 316] , efficacy in %: 90

Recorded result, CCc1cc2c(cc1C(=O)NC1(C#N)CC1)cc(C(=O)NC(c1cccc(C(F)(F)F)c1)C(F)(F)F)n2CC (stereo not shown) [Compound 282] , efficacy in %: 80

* * *

protocol: logP (HPLC-MS)
Assay type: physicochemical
experimentalContext: HPLC, reversed-phase column (C18), acidic range pH 2.7, acetonitrile (0.1% formic acid)/water gradient, 43° C., calibration with unbranched alkan-2-ones; read-out: log p
propertyMeasured: chromatographic logP

CCn1c(C(=O)NC(c2cccc(C(F)(F)F)c2)C(F)(F)F)nc2cc(C(=O)NC3CC3)c(Cl)cc21 (stereo not shown) | 3.67
CCn1c(C(=O)NC(c2ccc(F)c(C(F)(F)F)c2)C(F)(F)F)cc2cc(C(=O)NCC(F)F)c(Cl)cc21 (stereo not shown) | 4.03
CCn1c(C(=O)NC(c2cccc(C(F)(F)F)c2)C(F)(F)F)cc2cc(CNC(C)=O)c(Cl)cc21 (stereo not shown) | 3.77
CCn1c(C(=O)NC(c2cccc(C(F)(F)F)c2)C(F)(F)F)cc2cc(C(=O)NC3(C#N)CC3)c(Cl)cc21 (stereo not shown) | 3.78
C#CCn1c(C(=O)NC(c2cccc(C(F)(F)F)c2)C(F)(F)F)cc2cc(C(=O)NC3(C#N)CC3)c(Cl)cc21 (stereo not shown) | 3.49
CCn1c(C(=O)NC(c2cccc(C(F)(F)F)c2)C(F)(F)F)c(Cl)c2cc(C(=O)NC3(C#N)CC3)c(Cl)cc21 (stereo not shown) | 3.95
CCn1c(C(=O)NC(c2cccc(C(F)(F)F)c2)C(F)(F)F)cc2cc(C(=O)NC3(C(N)=S)CC3)c(Cl)cc21 (stereo not shown) | 3.56

* * *

protocol: logP (HPLC-MS)
Format: physicochemical
experimentalContext: HPLC, reversed-phase column (C18), acidic range pH 2.7, acetonitrile (0.1% formic acid)/water gradient, 43° C., calibration with unbranched alkan-2-ones
propertyMeasured: log p

CCn1c(C(=O)NC(c2ccc(F)c(C(F)(F)F)c2)C(F)(F)F)cc2cc(C(=O)NC3CC3)c(C)cc21 (stereo not shown) | 3.76
CCOC1(NC(=O)c2cc3cc(C(=O)NC(c4cccc(C(F)(F)F)c4)C(F)(F)F)n(CC)c3cc2Cl)CC1 (stereo not shown) | 4.19
CCn1c(C(=O)NC(c2cccc(C(F)(F)F)c2)C(F)(F)F)cc2cc(C(=O)NC(C)(C)C#N)c(Cl)cc21 (stereo not shown) | 3.89
CCn1c(C(=O)NC(c2cc(Cl)c(Cl)c(Cl)c2)C(F)(F)F)cc2cc(C(=O)NC3(C#N)CC3)c(Cl)cc21 (stereo not shown) | 4.43
CCn1c(C(=O)NC(c2cccc(C(F)(F)F)c2)C(F)(F)F)cc2cc(C(=O)NCC(C)(F)F)c(Cl)cc21 (stereo not shown) | 4.06
CCn1c(C(=O)NC(c2ccc(F)c(Cl)c2)C(F)(F)F)cc2cc(C(=O)NC3(C#N)CC3)c(C)cc21 (stereo not shown) | 3.66
CCn1c(C(=O)NC(c2cccc(Br)c2)C(F)(F)F)cc2cc(C(=O)NC3(C#N)CC3)c(Cl)cc21 (stereo not shown) | 3.75

* * *

protocol: logP (HPLC-MS)
Type: physicochemical
experimentalContext: HPLC, reversed-phase column (C18), 43° C., acidic range pH 2.7, EEC directive 79/831 Annex V.A8; two values = both regioisomers (G = N)
propertyMeasured: log p

C=CCn1c(C(=O)NC(c2ccc(F)c(C(F)(F)F)c2)C(F)(F)F)nc2cc(C(=O)NC3CC3)c(Cl)cc21 (stereo not shown) | 3.79
N#CCn1c(C(=O)NC(c2cccc(C(F)(F)F)c2)C(F)(F)F)cc2cc(C(=O)NC3(C#N)CC3)c(Cl)cc21 (stereo not shown) | 3.30
CCn1c(C(=O)NC(c2cc(F)cc(Cl)c2)C(F)(F)F)cc2cc(C(=O)NC3CC3)c(C)cc21 (stereo not shown) | 3.77
CC(C)Cn1c(C(=O)NC(c2cccc(C(F)(F)F)c2)C(F)(F)F)cc2cc(C(=O)NC3(C#N)CC3)c(Cl)cc21 (stereo not shown) | 4.13

* * *

System: Phaedon cochleariae
protocol: Phaedon test (PHAECO spray treatment)
Format: in vivo
experimentalContext: application rate 100 g/ha; Chinese cabbage leaf discs; after 7 days
propertyMeasured: efficacy in % (%)
Field format: number, assumed %, no unit text.

Recorded result, CCn1c(C(=O)NC(c2cccc(C(F)(F)F)c2)C(F)(F)F)cc2cc(C(=O)NC(C)C#N)c(Cl)cc21 (stereo not shown) , efficacy in %: 100
